# maps each entry to its Reactivity (%)
Molecular target: S#066: VL-L2-VH CAR-T
Assay: flow cytometry on CAR-T cells; PE-labeled secondary antibody; PE-positive cells / total cells
measure: Reactivity (%)

binder	measure	unit-label	readout-number
2D12-B12 (antibody, V domains shown) VH: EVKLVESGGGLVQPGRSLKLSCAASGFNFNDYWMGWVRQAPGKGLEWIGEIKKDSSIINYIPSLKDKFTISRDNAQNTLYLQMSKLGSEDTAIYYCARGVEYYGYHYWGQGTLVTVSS VL: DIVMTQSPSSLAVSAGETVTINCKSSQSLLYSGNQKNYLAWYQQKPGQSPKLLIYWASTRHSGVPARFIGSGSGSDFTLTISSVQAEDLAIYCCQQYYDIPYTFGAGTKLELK	Reactivity (%)	%	0.9
3A4-A10-7 (antibody, V domains shown) VH: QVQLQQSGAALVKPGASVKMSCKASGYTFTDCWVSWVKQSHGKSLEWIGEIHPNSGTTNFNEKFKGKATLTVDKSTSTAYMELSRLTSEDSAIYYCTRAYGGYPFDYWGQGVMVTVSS VL: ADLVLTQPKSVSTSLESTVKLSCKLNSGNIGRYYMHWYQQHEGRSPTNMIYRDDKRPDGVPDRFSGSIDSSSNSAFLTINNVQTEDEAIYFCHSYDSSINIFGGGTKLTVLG	Reactivity (%)	%	0.2
3E7-C1 (antibody, V domains shown) VH: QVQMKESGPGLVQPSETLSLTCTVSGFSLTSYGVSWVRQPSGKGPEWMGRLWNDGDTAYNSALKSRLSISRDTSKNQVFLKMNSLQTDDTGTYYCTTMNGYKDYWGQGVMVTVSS VL: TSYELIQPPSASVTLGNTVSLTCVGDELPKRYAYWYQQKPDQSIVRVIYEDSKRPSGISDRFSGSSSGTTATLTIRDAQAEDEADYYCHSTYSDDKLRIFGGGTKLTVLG	Reactivity (%)	%	0.1

Where do these numbers come from? They come from patent US20240400718A1.
